Measured values drawn from the supplement of paper PMC6555819 for this set.

# System: LXRb homodimer (NR concentration 270 nM)
# assay-summary: PBM binding z-score (relative to random genomic background probes); higher = stronger binding; sequences stand for … in GC…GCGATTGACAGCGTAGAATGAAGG
So basically every entry gets a class from its PBM binding z-score, ranges being low bracket (below -0.4), middle bracket (-0.4 to below 0.001), high bracket (0.001 or more)

sequence-content	class
GCTTACGGGTCAACGGTTATAGCATGAATAGAAT	middle bracket
TCTATTAGTTGAAGGGCAACCGCCGAGTCCGTTT	high bracket
CCGACTGGGGCAGGAAGGTTACCATACCATCCGG	low bracket
TCATATAGGTAAACAGATGAAAGTCCGTAAGTTA	middle bracket
ACAGAAAGGTGAGTGAAGGTAACTCAGCTGGACG	low bracket
CCTACTGAGCCAAGGTCATTGATCAGTCAAAGCA	high bracket

*Q* State the band of GCTAGTAGTTGAAAGGGCAACCGAATGATTCTCG
*A* low bracket

*Q* State the band of GCATTTAGGTAATACAAGGTGAAAGTCCGATTGT
*A* middle bracket

*Q* State the band of AACTCTAGGTAAGACTCAGTTCAGTGAAGAACGC
*A* middle bracket

###

Documented PBM binding z-score across a set of sequences
# Tested on: PPARg:RXRa 30nM:10nM, anti-RXR (NR concentration 30 nM, RXRa partner concentration 10 nM)
# assay-summary: PBM binding z-score (relative to random genomic background probes); higher = stronger binding; sequences stand for … in GC…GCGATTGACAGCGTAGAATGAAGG
Keep it simple and answer with nothing but the number.

sequence-content	PBM binding z-score
CTCGAAAGGTCGGTTCAGGTGAGTATACGGATAA	0.0497
ATCGAAAGGTCGTGAGGTTAGTATACAGAAAGGC	1.92
TAGCCTGGGTCATTCAGGGGCCAGTATAGAAAGC	0.19
GCGACTGGGGCATCAGCAGGTTTCCATAACTTAA	-0.554
GCTAGTTGGTCAGTAAACGGTCACACACCGGTCG	-0.311

*Q* Consider the sequence GCGACTGGGGCAAAGCAGGTTTCCATAAGGTTGG and give its measured PBM binding z-score.
*A* -0.401

*Q* Consider the sequence ATATCTAGGTTACATCCGGGTCATTCAGGCTATG and give its measured PBM binding z-score.
*A* 2.4

*Q* Consider the sequence CGAACTCGGTCATTGACAGGACAGTGAATAGTAA and give its measured PBM binding z-score.
*A* -0.134

*Q* Consider the sequence CGTCCAAGGTCAATGCTATGTCAGTGAAAGCATT and give its measured PBM binding z-score.
*A* 1.02

*Q* Consider the sequence CCGACTGGGGCAAAGGTTACCAGACTCAGTACGA and give its measured PBM binding z-score.
*A* 8.75

*Q* Consider the sequence GCTAGTTGGTCAGTAAAAGGTCACAAACCGGTCG and give its measured PBM binding z-score.
*A* 2.23

*Q* Consider the sequence CGAACTTGGTCATCCAGGACAGTGAATACATTGA and give its measured PBM binding z-score.
*A* 0.133

###

# Tested on: PPARg:RXRa 270nM:90nM, anti-RXR (NR concentration 270 nM, RXRa partner concentration 90 nM)
# assay-summary: PBM binding z-score (relative to random genomic background probes); higher = stronger binding; sequences stand for … in GC…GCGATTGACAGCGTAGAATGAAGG
Documented PBM binding z-score across a set of sequences
Keep it simple and answer with nothing but the number.

Solved cases (4 shown):
sequence-content	PBM binding z-score
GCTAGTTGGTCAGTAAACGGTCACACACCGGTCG	-0.0958
CGTCCAAGGTCAGAGAGGTCTGTGAATGCCGAGT	2.64
TCGAGTAGGTTACCAATGTGGCATTCAGCTTTCT	1.09
TTACCAAGGTGATAGGTCGTTGATGCACGCCTTG	5.47

*Q* Consider the sequence TAGCCTAGGTCAGATCGGGCCAGTACACGCTATA and give its measured PBM binding z-score.
*A* 0.997

*Q* Consider the sequence TGAATGAGGTTATAAGATCAGGAAACGTTGCAAA and give its measured PBM binding z-score.
*A* 2.14

*Q* Consider the sequence ATCTCTACGTAAAGTTCAGTGAAAGATCGATAGA and give its measured PBM binding z-score.
*A* 2.47

*Q* Consider the sequence TTACCAAGGTGAAAGGTCGTTGGTGCACGCCTTG and give its measured PBM binding z-score.
*A* 8.05

*Q* Consider the sequence AGAACGAGGGCAATGAGGTGATAGCACGGGTGGC and give its measured PBM binding z-score.
*A* 1.46

*Q* Consider the sequence TCATATAGGTAATACAGGTGCAAGTCGGCATCTA and give its measured PBM binding z-score.
*A* 2.35

*Q* Consider the sequence TAACCAAGGTGAAGGTCGTTGATCCCTCTGTAGA and give its measured PBM binding z-score.
*A* 3.53
